- Test system: Enterococcus faecium
- Test Description: In vitro antibacterial activity against Streptococcus faecium ATCC 8043
- Assay type: functional
Measurement Type: MIC (µg/mL)

Worked set:
| Compound | Observed Value |
| --- | --- |
| O=C(O)c1cn(-c2ccc(F)cc2)c2nc(N3CCNCC3)c(F)cc2c1=O | 3.1 |
| NC1CCN(c2nc3c(cc2F)c(=O)c(C(=O)O)cn3-c2ccc(F)cc2F)C1 (stereo not given) | 0.2 |
| Cl.O=C(O)c1cn(-c2ccc(F)cc2)c2cc(N3CCNCC3)c(F)cc2c1=O [SARAFLOXACIN HYDROCHLORIDE] | 1.56 |

A = O=C(O)c1cn(-c2ccc(F)cc2)c2nc(N3CCC(O)C3)c(F)cc2c1=O (stereo not given)
B = CC1CN(c2nc3c(cc2F)c(=O)c(C(=O)O)cn3-c2ccc(F)cc2)CCN1 (stereo not given)
Which item exceeds the other in MIC, A or B ? In your reply, give the label of the chosen option.
B

----------
- Test system: Pseudomonas aeruginosa
- Test Description: In vitro antibacterial activity against Pseudomonas aeruginosa K799/WT
- Format: functional
Measurement Type: MIC (µg/mL)

| Compound | Unit Descriptor | MIC |
| --- | --- | --- |
| CC1CN(c2nc3c(cc2F)c(=O)c(C(=O)O)cn3-c2ccc(F)cc2)CCN1 (stereo not given) | µg/mL | 1.56 |
| NC1CCN(c2nc3c(cc2F)c(=O)c(C(=O)O)cn3-c2ccc(F)cc2F)C1 (stereo not given) | µg/mL | 0.39 |
| O=C(O)c1cn(-c2ccc(F)cc2F)c2nc(N3CCNCC3)c(F)cc2c1=O | µg/mL | 0.39 |

a = CN1CCN(c2cc3c(cc2F)c(=O)c(C(=O)O)cn3-c2ccc(F)cc2)CC1.Cl [DIFLOXACIN HYDROCHLORIDE]
b = CN1CCN(c2nc3c(cc2F)c(=O)c(C(=O)O)cn3-c2ccc(F)cc2F)CC1
Of a versus b , which is the one with smaller reported MIC? In your reply, give the label of the chosen option.
a
(a: 1.56 µg/mL, b: 3.1 µg/mL)

----------
- Test system: Pseudomonas aeruginosa
- Test Description: In vitro antibacterial activity against Pseudomonas aeruginosa 5007
- Format: functional
Measurement Type: MIC (µg/mL)

| Compound | Observed Value |
| --- | --- |
| O=C(O)c1cn(-c2ccc(F)cc2)c2nc(N3CCC(O)C3)c(F)cc2c1=O (stereo not given) | 3.1 |

P = NC1CCN(c2nc3c(cc2F)c(=O)c(C(=O)O)cn3-c2ccc(F)cc2)C1 (stereo not given)
Q = CN1CCN(c2cc3c(cc2F)c(=O)c(C(=O)O)cn3-c2ccc(F)cc2)CC1.Cl [DIFLOXACIN HYDROCHLORIDE]
Of P versus Q , which is the one with smaller reported MIC? In your reply, give the label of the chosen option.
P
(P: 0.1 µg/mL, Q: 0.78 µg/mL)

----------
- Test system: Enterococcus faecium
- Test Description: In vitro antibacterial activity against Streptococcus faecium ATCC 8043
- Type: functional
Measurement Type: MIC (µg/mL)

Worked set:
| Compound | System Tested | MIC, µg/mL |
| --- | --- | --- |
| O=C(O)c1cn(C2CC2)c2cc(N3CCNCC3)c(F)cc2c1=O | Enterococcus faecium | 0.2 |
| CCn1cc(C(=O)O)c(=O)c2cc(F)c(N3CCNCC3)cc21 | Enterococcus faecium | 0.78 |

A = CN1CCN(c2nc3c(cc2F)c(=O)c(C(=O)O)cn3-c2ccc(F)cc2)CC1
B = NC1CCN(c2nc3c(cc2F)c(=O)c(C(=O)O)cn3-c2ccc(F)cc2)C1 (stereo not given)
C = CN1CCN(c2nc3c(cc2F)c(=O)c(C(=O)O)cn3-c2ccc(F)cc2F)CC1
Put the items in order so that reported MIC rises from first to last. Rank them, then answer with their labels in that order.
B, C, A
(B: 0.39 µg/mL, C: 1.56 µg/mL, A: 3.1 µg/mL)
